The measured values listed here are drawn from ChEMBL document CHEMBL3046897.

test system: Bacillus subtilis; assay: Antibacterial activity against Bacillus subtilis at 100 ug/disk after 24 hr by paper disk diffusion method; assay type: functional; details: read-out: IZ
Each entry gets f if its zone of inhibition at 100 µg/disc stays under 20 mm, and t if its zone of inhibition at 100 µg/disc is 20 mm or above.

Example cases with answers are listed next.
[
  {
    "Compound": "Cc1cc(=O)oc2cc(Oc3nc(Nc4ccc(/N=C/c5ccc(Cl)c(Cl)c5)cc4)nc(N(C)C)n3)ccc12",
    "Label": "f"
  },
  {
    "Compound": "Cc1cc(=O)oc2cc(Oc3nc(Nc4ccc(/N=C/c5ccc(Cl)cc5)cc4)nc(N(C)C)n3)ccc12",
    "Label": "f"
  },
  {
    "Compound": "O=C(O)c1cn(C2CC2)c2cc(N3CCNCC3)c(F)cc2c1=O",
    "Label": "t"
  },
  {
    "Compound": "Cc1cc(=O)oc2cc(Oc3nc(Nc4ccc(/N=C/c5cccc(F)c5)cc4)nc(N(C)C)n3)ccc12",
    "Label": "f"
  },
  {
    "Compound": "Cc1cc(=O)oc2cc(Oc3nc(Nc4ccc(/N=C/c5ccc(F)cc5)cc4)nc(N(C)C)n3)ccc12",
    "Label": "f"
  },
  {
    "Compound": "Cc1cc(=O)oc2cc(Oc3nc(Nc4ccc(/N=C/c5ccccc5)cc4)nc(N(C)C)n3)ccc12",
    "Label": "f"
  },
  {
    "Compound": "Cc1cc(=O)oc2cc(Oc3nc(Nc4ccc(/N=C/c5ccc(Cl)cc5Cl)cc4)nc(N(C)C)n3)ccc12",
    "Label": "f"
  },
  {
    "Compound": "Cc1cc(=O)oc2cc(Oc3nc(Nc4ccc(/N=C/c5ccc([N+](=O)[O-])cc5)cc4)nc(N(C)C)n3)ccc12",
    "Label": "f"
  },
  {
    "Compound": "Cc1cc(=O)oc2cc(Oc3nc(Nc4ccc(N5C(=O)C(CN6CCN(c7ccccn7)CC6)SC5c5ccc(F)cc5)cc4)nc(N(C)C)n3)ccc12 (stereo unspecified)",
    "Label": "t"
  },
  {
    "Compound": "COc1ccc(C2SCC(=O)N2c2ccc(Nc3nc(Oc4ccc5c(C)cc(=O)oc5c4)nc(N(C)C)n3)cc2)cc1 (stereo unspecified)",
    "Label": "f"
  }
]

Consider now this further compound.
Is it the case that Cc1cc(=O)oc2cc(Oc3nc(Nc4ccc(N5C(=O)CSC5c5cccc(F)c5)cc4)nc(N(C)C)n3)ccc12 (stereo unspecified) has zone of inhibition at 100 µg/disc reaching or exceeding 20 mm?
f
